- Tested on: 252836-082-R-J2-PDC tumor spheroids, viability
- experiment: Anticancer human tumor 252836-082-R-J2-PDC patient-derived head and neck squamous cell carcinoma cell line growth inhibition [PI3K]
- condition_set: second compound 0.316 µM; first compound 0.0949 µM; stronger effect = lower value; spheroids with HUVEC and MSC
recorded_endpoint: viability, T/C (%)
Answers are plain numbers, in %.

Example compounds with recorded viability, T/C:
| compound | recorded_endpoint | unit_of_measure | observed_measurement |
| --- | --- | --- | --- |
| Cn1cnc2c(F)c(Nc3ccc(Br)cc3Cl)c(C(=O)NOCCO)cc21 + Cc1nc(NC(=O)N2CCCC2C(N)=O)sc1-c1ccnc(C(C)(C)C(F)(F)F)c1 | viability, T/C | % | 65.2 |
| Cn1cnc2c(F)c(Nc3ccc(Br)cc3Cl)c(C(=O)NOCCO)cc21 + COc1c(OCCCN2CCOCC2)ccc2c3n(c(=NC(=O)c4cnc(N)nc4)nc12)CCN3 | viability, T/C | % | 9.2 |
| Cn1cnc2c(F)c(Nc3ccc(Br)cc3Cl)c(C(=O)NOCCO)cc21 + CC(Nc1ccc2c(c1)OCCn1cc(N3C(=O)OCC3C(F)F)nc1-2)C(N)=O | viability, T/C | % | 47.5 |

Query: Fill in the blank: the reported viability, T/C of Cn1cnc2c(F)c(Nc3ccc(Br)cc3Cl)c(C(=O)NOCCO)cc21 + CC(Nc1ncnc2nc[nH]c12)c1cc2cccc(Cl)c2c(=O)n1-c1ccccc1 is ____.
Response: 88.6

---

- Tested on: 252836-082-R-J2-PDC tumor spheroids, viability
- experiment: Anticancer human tumor 252836-082-R-J2-PDC cell line growth inhibition [PI3K];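 further: spheroids exposed to agents for seven days before readout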;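 on viability, T/C: percent of vehicle DMSO control viability so 100% = untreated growth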
- condition_set: second compound 10 µM; first compound 0.0316 µM; stronger effect = lower value; spheroids with HUVEC and MSC
Consider the following partition of reported viability, T/C into named classes: LOW (below 30%), MEDIUM (30% to below 60%), HIGH (60% or more)

Observe how each entry below is paired with its result.
| compound | assigned_category |
| --- | --- |
| Cn1nccc1Nc1nccc(-c2ccn(C(CO)c3ccc(Cl)c(F)c3)c(=O)c2)n1 (stereo unspecified) + CC(Nc1ncnc2nc[nH]c12)c1cc2cccc(Cl)c2c(=O)n1-c1ccccc1 | HIGH |
| CCN1CCN(Cc2ccc(Nc3ncc(F)c(-c4cc(F)c5nc(C)n(C(C)C)c5c4)n3)nc2)CC1 + Cc1nc(NC(=O)N2CCCC2C(N)=O)sc1-c1ccnc(C(C)(C)C(F)(F)F)c1 | LOW |

Query: Hi, small favor: classify CC(=O)c1c(C)c2cnc(Nc3ccc(N4CCNCC4)cn3)nc2n(C2CCCC2)c1=O + Cc1nc(NC(=O)N2CCCC2C(N)=O)sc1-c1ccnc(C(C)(C)C(F)(F)F)c1 by its viability, T/C when you get a moment.
Response: MEDIUM

Query: # classify by viability, T/C band: CC(=O)c1c(C)c2cnc(Nc3ccc(N4CCNCC4)cn3)nc2n(C2CCCC2)c1=O + CC(Nc1ncnc2nc[nH]c12)c1cc2cccc(Cl)c2c(=O)n1-c1ccccc1
Response: HIGH

Query: Lab log: C[C@@H](NC(=O)c1ncnc(N)c1Cl)c1ncc(C(=O)Nc2cc(C(F)(F)F)c(Cl)cn2)s1 + CC(Nc1ncnc2nc[nH]c12)c1cc2cccc(Cl)c2c(=O)n1-c1ccccc1 — assign viability, T/C category
Response: HIGH

Query: Which band does CC(C)n1nc(-c2ccc3oc(N)nc3c2)c2c(N)ncnc21 + Cc1nc(NC(=O)N2CCCC2C(N)=O)sc1-c1ccnc(C(C)(C)C(F)(F)F)c1 fall in?
Response: LOW

Query: Category of Cn1ncc(Cl)c1-c1cc(C(=O)NC(CN)Cc2cccc(F)c2)sc1Cl (stereo unspecified) + Cc1nc(NC(=O)N2CCCC2C(N)=O)sc1-c1ccnc(C(C)(C)C(F)(F)F)c1 , please.
Response: MEDIUM

Query: Using the reported viability, T/C, which band applies to CC(Cn1ccc(-c2ccc(C#N)c(Cl)c2)n1)NC(=O)c1cc(C(C)O)[nH]n1 (stereo unspecified) + Cc1nc(NC(=O)N2CCCC2C(N)=O)sc1-c1ccnc(C(C)(C)C(F)(F)F)c1 ?
Response: MEDIUM

Query: Form: Item = CC1(C)CCC(CN2CCN(c3ccc(C(=O)NS(=O)(=O)c4ccc(NCC5CCOCC5)c([N+](=O)[O-])c4)c(Oc4cnc5[nH]ccc5c4)c3)CC2)=C(c2ccc(Cl)cc2)C1 + Cc1nc(NC(=O)N2CCCC2C(N)=O)sc1-c1ccnc(C(C)(C)C(F)(F)F)c1 ; Class = ?
Response: MEDIUM

Query: The entry to classify is CC1(C)CCC(Nc2ncc(C(F)(F)F)c(-c3c[nH]c4c(P(C)(C)=O)c(C#N)ccc34)n2)CN1 (stereo unspecified) + CC(Nc1ncnc2nc[nH]c12)c1cc2cccc(Cl)c2c(=O)n1-c1ccccc1 ; which class holds it?
Response: LOW

---

- System: 252836-082-R-J2-PDC tumor spheroids, viability
- experiment: Anticancer human tumor 252836-082-R-J2-PDC cell line growth inhibition [PI3K];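 further: spheroids exposed to agents for seven days before readout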
- condition_set: curve of first compound; second compound 3.16 µM; spheroids with HUVEC and MSC
recorded_endpoint: pIC50
Answers are plain numbers, as −log10 of the molar value.

| compound | pIC50 |
| --- | --- |
| CCCS(=O)(=O)Nc1ccc(F)c(C(=O)c2c[nH]c3ncc(-c4ccc(Cl)cc4)cc23)c1F + CC(Nc1ncnc2nc[nH]c12)c1cc2cccc(Cl)c2c(=O)n1-c1ccccc1 | 5.32 |
| CC(C)n1nc(-c2ccc3oc(N)nc3c2)c2c(N)ncnc21 + CC(Nc1ncnc2nc[nH]c12)c1cc2cccc(Cl)c2c(=O)n1-c1ccccc1 | 7.67 |

Query: What value of pIC50 has been reported for the following compound? Cn1ncnc1[C@H]1c2n[nH]c(=O)c3cc(F)cc(c23)N[C@@H]1c1ccc(F)cc1 + CC(Nc1ncnc2nc[nH]c12)c1cc2cccc(Cl)c2c(=O)n1-c1ccccc1
Response: 7.04

---

- Tested on: 252836-082-R-J2-PDC tumor spheroids, viability
- experiment: Anticancer human tumor 252836-082-R-J2-PDC cell line growth inhibition [PI3K];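 further: spheroids exposed to agents for seven days before readout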;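 on viability, T/C: percent of vehicle DMSO control viability so 100% = untreated growth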
- condition_set: second compound 10 µM; first compound 0.316 µM; stronger effect = lower value; spheroids with HUVEC and MSC
Provide the recorded viability, T/C for the entries that follow.
Give bare numbers, in %.

| compound | experimental_target | viability, T/C [%] |
| --- | --- | --- |
| CNC(=O)c1ccc(N2C(=S)N(c3ccc(C#N)c(C(F)(F)F)c3)C(=O)C2(C)C)cc1F + CC(Nc1ncnc2nc[nH]c12)c1cc2cccc(Cl)c2c(=O)n1-c1ccccc1 | 252836-082-R-J2-PDC tumor spheroids, viability | 70.9 |
| CC(Cn1ccc(-c2ccc(C#N)c(Cl)c2)n1)NC(=O)c1cc(C(C)O)[nH]n1 (stereo unspecified) + Cc1nc(NC(=O)N2CCCC2C(N)=O)sc1-c1ccnc(C(C)(C)C(F)(F)F)c1 | 252836-082-R-J2-PDC tumor spheroids, viability | 39.2 |
| Cn1ncc(Cl)c1-c1cc(C(=O)NC(CN)Cc2cccc(F)c2)sc1Cl (stereo unspecified) + Cc1nc(NC(=O)N2CCCC2C(N)=O)sc1-c1ccnc(C(C)(C)C(F)(F)F)c1 | 252836-082-R-J2-PDC tumor spheroids, viability | 34.1 |

I'm hoping you can list viability, T/C for every compound here, please.
1. CNC(=O)c1ccc(N2C(=S)N(c3ccc(C#N)c(C(F)(F)F)c3)C(=O)C2(C)C)cc1F + Cc1nc(NC(=O)N2CCCC2C(N)=O)sc1-c1ccnc(C(C)(C)C(F)(F)F)c1
2. C[C@@H](NC(=O)c1ncnc(N)c1Cl)c1ncc(C(=O)Nc2cc(C(F)(F)F)c(Cl)cn2)s1 + CC(Nc1ncnc2nc[nH]c12)c1cc2cccc(Cl)c2c(=O)n1-c1ccccc1
3. CC(C)NCC(C(=O)N1CCN(c2ncnc3c2C(C)CC3O)CC1)c1ccc(Cl)cc1 (stereo unspecified) + Cc1nc(NC(=O)N2CCCC2C(N)=O)sc1-c1ccnc(C(C)(C)C(F)(F)F)c1
4. CCCS(=O)(=O)Nc1ccc(F)c(C(=O)c2c[nH]c3ncc(-c4ccc(Cl)cc4)cc23)c1F + Cc1nc(NC(=O)N2CCCC2C(N)=O)sc1-c1ccnc(C(C)(C)C(F)(F)F)c1
5. Cn1ncc(Cl)c1-c1cc(C(=O)NC(CN)Cc2cccc(F)c2)sc1Cl (stereo unspecified) + CC(Nc1ncnc2nc[nH]c12)c1cc2cccc(Cl)c2c(=O)n1-c1ccccc1
6. Cn1nccc1Nc1nccc(-c2ccn(C(CO)c3ccc(Cl)c(F)c3)c(=O)c2)n1 (stereo unspecified) + Cc1nc(NC(=O)N2CCCC2C(N)=O)sc1-c1ccnc(C(C)(C)C(F)(F)F)c1
7. Cn1nccc1Nc1nccc(-c2ccn(C(CO)c3ccc(Cl)c(F)c3)c(=O)c2)n1 (stereo unspecified) + CC(Nc1ncnc2nc[nH]c12)c1cc2cccc(Cl)c2c(=O)n1-c1ccccc1
8. C#Cc1c(F)ccc2cc(O)cc(-c3ncc4c(N5CC6CCC(C5)N6)nc(OCC56CCCN5CC(F)C6)nc4c3F)c12 (stereo unspecified) + Cc1nc(NC(=O)N2CCCC2C(N)=O)sc1-c1ccnc(C(C)(C)C(F)(F)F)c1

Response:
[33.9, 55.5, 27.8, 43.7, 49.3, 34.3, 78.9, 31.5]
